test system: F1*sub RNA substrate (template-directed ligation); test: fraction ligated after 30 min (ligated reads / total reads); higher = more ligase activity; sequences stand for … in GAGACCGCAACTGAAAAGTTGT…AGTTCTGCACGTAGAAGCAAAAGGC; settings: 42 °C
For each record, write down the corresponding fraction ligated.
Give bare numbers.

Example entries and their recorded answers appear below.
1) TATCATTGTCTAAGACACTTTGGAGGGTTGA [3d1197]: 0.0716
2) TATCACTTGCGTAAGACCTTTGGATGGGTTG [3d1673]: 0.81
3) TACCTTGCGTAAGACACTTTGGATGGGTTGA [3d530]: 0.392
4) TATCACTGTTAAGACACTTTGGATGGGTTGA [3d1343]: 0.828
5) TATCACTTGTCGTAAACACTTTGATGGTTGA [3d2091]: 0.0645

// each sequence listed below needs its fraction ligated
1. TACACTTTCGTAAGACCTTTGGATGGGTTGA [3d592]
2. TATCACTGTCGTAAGACATTGGATGGGTTGA [3d1433]
3. TATCACTTTCTAAGACACTTTGGATGGGTTG [3d1492]
4. TATCACGCGTAAGACACTTTGGATGGGTTGA [3d1294]
5. TATACTTGTCGTAGACACTTTGGATGGGTTG [3d882]
6. TATACTTGTCGTAAACACTTTGGAGGGTTGA [3d889]
7. ATCACTTGTCGTAAGACACTTGGTGGGTTGA [3d255]

Completion:
1. 0.0278
2. 0.818
3. 0.785
4. 0.814
5. 0.232
6. 0.0111
7. 0.00771

// each sequence listed below needs its fraction ligated
1. TACACTTGTCGTAAGCACTTTGGATGGGTTGA [2d58]
2. TATCACTTGCGAAGACACTTTGGTGGGTTGA [3d1621]
3. TATCACTTGCGTAAACACTTTGGTGGGTTGA [3d1644]
4. TATCACTTGTCGTAAGAACTTTGATGGGTTG [3d2171]
5. TTCACTTTCGAAGACACTTTGGATGGGTTGA [3d357]
6. TATCCTTGTCGTAAGAATTTGGATGGGTTGA [3d1075]

Completion:
0.183
0.0968
0.0539
0.726
0.145
0.79

// each sequence listed below needs its fraction ligated
1. TATCACTTGTCGTAAGACACTTTGGAGGGTTA [2d294]
2. TATCACTTTCGTAAACATTTGGATGGGTTGA [3d1521]
3. TATATTGTGTAAGACACTTTGGATGGGTTGA [3d761]
4. ATCACTTGTCGAAACACTTTGGATGGGTTGA [3d186]
5. TTCACTTGTGTAAACACTTTGGATGGGTTGA [3d390]
6. TATCCTTGTCTAAGCACTTTGGATGGGTTGA [3d1018]
7. TATCCTTGCGTAAGACACTTTGGAGGGTTGA [3d996]
8. TATCACTGTCTAAACACTTTGGATGGGTTGA [3d1360]

Completion:
1: 0.0266; 2: 0.787; 3: 0.778; 4: 0.784; 5: 0.793; 6: 0.765; 7: 0.0215; 8: 0.816

// each sequence listed below needs its fraction ligated
1. TATCACTTGTCGAAGCACTTTGGATGGGTTG [3d1934]
2. TATTTGTCGTAAGACACTTTGGATGGGTTGA [3d738]

Completion:
[0.783, 0.762]

----------
For each record, write down the corresponding fraction ligated.
tested on: F1*sub RNA substrate (template-directed ligation); experiment: fraction ligated after 30 min (ligated reads / total reads); higher = more ligase activity; sequences stand for … in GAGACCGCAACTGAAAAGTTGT…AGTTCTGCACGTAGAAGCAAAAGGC; conditions: 42 °C
Answers are plain numbers.

Example entries and their recorded answers appear below.
1. TACACTTGTCTAAGACCTTTGGATGGGTTGA [3d637]: 0.0809
2. TATCATTGCGTAAGACCTTTGGATGGGTTGA [3d1163]: 0.815
3. TATCCTTGTCTAAGACACTTTGGATGGTTGA [3d1026]: 0.047
4. TATCATTGTGTAAGACACTTTGGTGGGTTGA [3d1182]: 0.0386
5. TATCACTTTCGTAAGCCTTTGGATGGGTTGA [3d1530]: 0.774

// each sequence listed below needs its fraction ligated
1. TACCTTGTGTAAGACACTTTGGATGGGTTGA [3d531]
2. ATCACTTGTCGTAAGACCTTTGGATGGGTTGA [2d16]
3. TATCACTTTCGTAAGACACTTTGGATGGTTG [3d1582]
4. TATCACTTGTTAAGACACTTTGGATGGGTTG [3d1717]
5. TATCACTTGTCGTAAGACACTTGGAGGGTTA [3d2249]

Completion:
1. 0.795
2. 0.741
3. 0.0551
4. 0.83
5. 0.0115

----------
For each record, write down the corresponding fraction ligated.
test system: F1*sub RNA substrate (template-directed ligation); assay: fraction ligated after 30 min (ligated reads / total reads); higher = more ligase activity; sequences stand for … in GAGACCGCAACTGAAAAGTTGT…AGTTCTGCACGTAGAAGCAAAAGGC; conditions: 42 °C
Give bare numbers.

// each sequence listed below needs its fraction ligated
1. TATCACTTGCGTAAGACACTTGGATGGGTTA [3d1686]
2. TATCACTTTCGAAGACACTTTGGATGGGTTG [3d1505]
3. TATCACTTGTCGAAGACATTTGGTGGGTTGA [3d1952]

Completion:
1. 0.558
2. 0.792
3. 0.05

// each sequence listed below needs its fraction ligated
1. TTACTTGTGTAAGACACTTTGGATGGGTTGA [3d282]
2. TATCACTTGTCGTAAGACATTTGATGGGTTGA [2d270]
3. TATCACTTGCGTAAGACCTTGGATGGGTTGA [3d1667]
4. ATCACTGTCGAAGACACTTTGGATGGGTTGA [3d110]
5. ACACTTGTCTAAGACACTTTGGATGGGTTGA [3d31]
6. TATCACTTGTCGAGACCTTTGGATGGGTTGA [3d1906]
7. TATCCTTGCGTAAGACACTTGGATGGGTTGA [3d993]
8. TATCACTGTCTAAGACACTTGGATGGGTTGA [3d1365]

Completion:
0.207
0.291
0.797
0.775
0.441
0.788
0.75
0.789

----------
tested on: F1*sub RNA substrate (template-directed ligation); experiment: fraction ligated after 30 min (ligated reads / total reads); higher = more ligase activity; sequences stand for … in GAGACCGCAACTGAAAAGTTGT…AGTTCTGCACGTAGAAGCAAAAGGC; conditions: 42 °C
property.name: fraction ligated

1) ATCACTTGTCGTAAGACACTTTGGATGGGTT [3d275]: 0.392

// each sequence listed below needs its fraction ligated
1. TATCCTGTCGTAAGACCTTTGGATGGGTTGA [3d959]
2. TTCACTTGTCGTAAACACTTTGGTGGGTTGA [3d447]
3. TATCATTGTCGTAGACCTTTGGATGGGTTGA [3d1218]
4. TATCACTTGTCGTAAGACTTTGGATGGGTTGA [2d244]
5. ATACTTGTCGTAAGACACTTTGGATGGGTTG [3d66]

Completion:
1: 0.772; 2: 0.0202; 3: 0.788; 4: 0.821; 5: 0.244

// each sequence listed below needs its fraction ligated
1. TATACTTGTCGAAGAACTTTGGATGGGTTGA [3d860]
2. TATCACTTGTCGTAACATTTGGATGGGTTGA [3d1995]
3. TATCACTTGTGTAAGACATTTGGATGGGTTA [3d1784]
4. TATCACTGTCGTAAGACACTTGGAGGGTTGA [3d1443]
5. TATCACTGTCTAAGACACTTTGGATGGGTTG [3d1371]
6. ATCATTTCGTAAGACACTTTGGATGGGTTGA [3d87]

Completion:
0.748
0.84
0.822
0.0736
0.8
0.654

Prompt: Using the record for TATCACTTGTCGTAAGACACTTTGGGGGTTG [3d2272] , state its measured fraction ligated.
Completion: 0.0105

----------
tested on: F1*sub RNA substrate (template-directed ligation); experiment: fraction ligated after 30 min (ligated reads / total reads); higher = more ligase activity; sequences stand for … in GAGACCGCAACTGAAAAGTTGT…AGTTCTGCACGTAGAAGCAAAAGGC; settings: 42 °C
# binarize fraction ligated: threshold 0.1 inclusive, high side TRUE, low side FALSE

1) TATCCTTGTCGTAAGACCTTGGATGGGTTGA [3d1083]: TRUE
2) TATCACTTGTGTAAGACACTTGGATGGTTGA [3d1790]: FALSE
3) TATACTTGTCGTAAGAACTTTGGATGGTTGA [3d908]: FALSE
4) ATCACTTGCGTAAGCACTTTGGATGGGTTGA [3d145]: TRUE
5) TATCACTTGCGAAGACACTTTGATGGGTTGA [3d1620]: TRUE

Prompt: Has TATCATTTCGAAGACACTTTGGATGGGTTGA [3d1142] a recorded fraction ligated greater than or equal to 0.1?
Completion: TRUE

Prompt: Has TATCACTTGTTAAGACACTTTGGATGGGTTA [3d1716] a recorded fraction ligated greater than or equal to 0.1?
Completion: TRUE

Prompt: Has TTCACTTGTCGTAAACACTTTGGAGGGTTGA [3d448] a recorded fraction ligated greater than or equal to 0.1?
Completion: FALSE

Prompt: Has TATCCTTGTGTAAGACCTTTGGATGGGTTGA [3d1006] a recorded fraction ligated greater than or equal to 0.1?
Completion: TRUE

Prompt: Has TATCACTTGTCGAGACACTTTGGATGGTTGA [3d1912] a recorded fraction ligated greater than or equal to 0.1?
Completion: TRUE

Prompt: Has TATCACTTGTCGTAAACACTTGGTGGGTTGA [3d2083] a recorded fraction ligated greater than or equal to 0.1?
Completion: TRUE

Prompt: Has TATCACTTGTCTAAGACACTTTGGTGGGTTA [3d1893] a recorded fraction ligated greater than or equal to 0.1?
Completion: TRUE

Prompt: Has TATCACTTGCGTAAGACACTTTGATGGGTTG [3d1693] a recorded fraction ligated greater than or equal to 0.1?
Completion: TRUE

Prompt: Has TATACTTGTCGTAAGAACTTTGGATGGGTTG [3d910] a recorded fraction ligated greater than or equal to 0.1?
Completion: TRUE

Prompt: Has TATCCTTGTCAAGACACTTTGGATGGGTTGA [3d1015] a recorded fraction ligated greater than or equal to 0.1?
Completion: TRUE

Prompt: Has TATCACTTGCTAAGACACTTTGGAGGGTTGA [3d1609] a recorded fraction ligated greater than or equal to 0.1?
Completion: TRUE

Prompt: Has ATCACTTGCGTAAGACACTTTGGATGGTTGA [3d153] a recorded fraction ligated greater than or equal to 0.1?
Completion: TRUE

Prompt: Has TATCACTGTCGTAAGACACTTTGGTGGGTTG [3d1456] a recorded fraction ligated greater than or equal to 0.1?
Completion: TRUE

Prompt: Has TATCCTTGTCGTAAGACACTTTGAGGGTTGA [3d1106] a recorded fraction ligated greater than or equal to 0.1?
Completion: FALSE

Prompt: Has ATACTTGTCGTAAGACACTTTGGATGGGTTGA [2d3] a recorded fraction ligated greater than or equal to 0.1?
Completion: TRUE

Prompt: Has TTCACTGTCGTAAGACACTTTGGAGGGTTGA [3d351] a recorded fraction ligated greater than or equal to 0.1?
Completion: TRUE

Prompt: Has TATCACTTGTCGTAAGACACTTTGGAGGTTGA [2d293] a recorded fraction ligated greater than or equal to 0.1?
Completion: FALSE

Prompt: Has ATCACTTGTGTAAGACACTTTGGTGGGTTGA [3d166] a recorded fraction ligated greater than or equal to 0.1?
Completion: FALSE

Ref: the supplement of paper PMC6755084
